- system-under-test: T1, GST-MINT1 PDZ domain 1 (Mus musculus (Mouse)), B2RUJ5
- T1 chain: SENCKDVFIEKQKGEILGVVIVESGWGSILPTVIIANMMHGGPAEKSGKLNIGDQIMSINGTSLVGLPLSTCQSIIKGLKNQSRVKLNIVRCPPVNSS
- protocol-summary: G assay titration, PDZ 5 ug/ml
measurement-label: Kd (nM)
Answers are plain numbers, in nM.

*Q* Quick check: Kd of KTMPAAMYRLLTAQEQPVYI (modifications not checked) [MINT-1] ?
*A* 2000
